# credit: patent US20230070338A1

Assay: RMC-4630-01 phase 1 study: pharmacokinetics in patients
Type: in vivo, human
Conditions: human, plasma, oral, 200 mg, following a single dose at 200 mg; read-out: median half-life (converted)
Property: half-life

# input Let me know recorded half-life for Cc1nc(N2CCC3(CC2)CO[C@@H](C)[C@H]3N)c(CO)nc1Sc1ccnc(N)c1Cl , thanks.
# output ~33 h
